Read-out: urokinase plasminogen activator (uPA), PLAU (gene 5328)
Test: BSK_KF3CT_uPA: BioMAP Diversity Plus: KF3CT Assay for urokinase plasminogen activator (uPA) Biomarker Activity (AID 2283075)
Conditions: primary human keratinocytes with fibroblasts; actives raise or lower the signal
The source made the active and inactive calls. How the source made its calls: active means hit-call score of the fitted dose curve at least 0.9, where 1 is the maximum; inactive means score below 0.9.
Property Name: AC50

OCCN1CCOCC1    inactive
O=C(O)C(F)(F)OC(F)(F)C(F)(F)OC(F)(F)C(F)(F)C(F)(F)C(F)(F)F    inactive
CC(=O)CCC=C(C)CCC=C(C)C    inactive
c1ccc(Sc2ccccc2)cc1    33.1 µM (active)
CC(C)CCCC(C)(C)O    inactive
NC(=O)c1c(Cl)cccc1Cl    inactive
C=C(C)C(N)=O    inactive
CCCCCCCC1CCCC1=O (centres undefined)    35.6 µM (active)

Prompt line: Field request: AC50 | item: `CCCCCCCCCCCCS`
Response line: 20 µM (active)

Prompt line: Next: `CCOC(=O)C=Cc1ccccc1`
Response line: inactive

Prompt line: Next: `C=C(C)C(=O)OCCC(F)(F)C(F)(F)C(F)(F)C(F)(F)C(F)(F)C(F)(F)C(F)(F)C(F)(F)F`
Response line: inactive

Prompt line: Next: `CCC(=O)OCC=Cc1ccccc1`
Response line: inactive

Prompt line: Next: `CC=CC(=O)C1=C(C)C=CCC1(C)C`
Response line: inactive

Prompt line: Next: `O=C(c1ccc(OCCN2CCCCC2)cc1)c1c(-c2ccc(O)cc2)sc2cc(O)ccc12`
Response line: 34.9 µM (active)

---

Read-out: Vascular cell adhesion molecule 1 (VCAM1), VCAM1 (gene 7412)
Test: BSK_hDFCGF_VCAM1: BioMAP Diversity Plus: hDFCGF Assay for Vascular cell adhesion molecule 1 (VCAM1) Biomarker Activity (AID 2283065)
Settings: primary human foreskin fibroblasts; actives raise or lower the signal
The source made the active and inactive calls. Rule for the calls: active = hit-call score of the fitted dose curve at least 0.9, where 1 is the maximum; inactive = score below 0.9.
// allowed return values: active, inactive

Prompt line: Outcome? `CCOC(=O)CCCCCCCCC(=O)OCC`
Response line: inactive

Prompt line: Next: `CCOC(=O)C=Cc1ccccc1`
Response line: inactive

Prompt line: Next: `COc1ccccc1NC(=O)CC(C)=O`
Response line: inactive

Prompt line: Next: `C=CC(=O)OCC(CO)(COC(=O)C=C)COC(=O)C=C`
Response line: active

Prompt line: Next: `CCCCN(CCO)CCO`
Response line: inactive

Prompt line: Next: `CC(=O)OCC=C(C)CCC=C(C)CCC=C(C)C`
Response line: inactive

Prompt line: Next: `CCCCOCCOCCO`
Response line: inactive

Prompt line: Next: `O=C1OC2(c3ccc(O)cc3Oc3cc(O)ccc32)c2ccccc21`
Response line: inactive

Prompt line: Next: `Nc1ccc(N)c([N+](=O)[O-])c1`
Response line: inactive

---

Experiment: CCTE_Deisenroth_5AR_NBTE_donor: CCTE's 5alpha-reductase NanoBRET Target Engagement Assay […], Deisenroth Lab (AID 2284319)
Conditions: actives raise or lower the signal
Calls of active or inactive are those of the source. Rule for the calls: active = hit-call score of the fitted dose curve at least 0.9, where 1 is the maximum; inactive = score below 0.9.
Property Name: AC50

The following compounds have reported results that may help.
CCCCCCCCCCCCN1CCOCC1    inactive
CCCO[Si](OCCC)(OCCC)OCCC    inactive
O=C(c1ccc(OCCN2CCCCC2)cc1)c1c(-c2ccc(O)cc2)sc2cc(O)ccc12    50 µM (active)
CCCCCCCCCCCCOCCOS(=O)(=O)O    79 µM (active)
O=S(=O)(O)c1cc(S(=O)(=O)O)c2c(N=Nc3ccccc3)c(O)ccc2c1    inactive

Now turn to the next compound.
Prompt line: Field request: AC50 | item: `CC/C(=C(\c1ccccc1)c1ccc(OCCN(C)C)cc1)c1ccccc1`
Response line: 67.4 µM (active)
